# measurement description: viability loss in PTEN-deleted colon tumor cells – cell-based, HCT116, CellTiter-Glo, primary screen (AID 827);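 note: PTEN knockout HCT116 line with beta catenin targeted HCT116 as companion control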
# experimental context: HCT116 PTEN-null viability, 60 h, at 10 µM
In all, about 140,000 compounds went through this assay and about 1,700 (1.2%) were called active.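 Rule for the calls: active = viability at or below a set limit, 4 SD under the median of all tested compounds (cut at about 3.7% in these data); inactive = the rest.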 What follows is part of a selection rich in actives, with near analogues and random picks from the rest.
Hi there, use one of these labels in your reply, thanks! TRUE = active, FALSE = inactive

Lookup: Would you mind telling me which call this test gave CC(C)(C)c1ccc(C(=O)CSc2ncn[nH]2)cc1 ?
Found: FALSE

Lookup: Would you mind telling me which call this test gave Cc1nc2ccccc2cc1O ?
Found: FALSE

Lookup: Would you mind telling me which call this test gave O=C(Cc1ccc(Cl)c(Cl)c1)Nc1ccc(SC(F)F)cc1 ?
Found: FALSE

Lookup: Would you mind telling me which call this test gave Cc1ccc(NC(=O)CC2S/C(=N/N=C3\CCCc4ccccc43)NC2=O)cc1 (centres undefined) ?
Found: FALSE

Lookup: Would you mind telling me which call this test gave COc1ccc2nc(Nc3nc4ccc(NC(C)=O)cc4s3)sc2c1 ?
Found: TRUE

Lookup: Would you mind telling me which call this test gave CCN1/C(=C/c2ccc3ccc(C)cc3[n+]2CC)Sc2ccccc21 ?
Found: TRUE

Lookup: Would you mind telling me which call this test gave CSc1nc(N)c(C#N)c(-c2ccccc2Cl)c1C#N ?
Found: FALSE

Lookup: Would you mind telling me which call this test gave Cc1noc(COc2ccccc2OCC(O)CNC(C)(C)C)n1 (centres undefined) ?
Found: FALSE

Lookup: Would you mind telling me which call this test gave COc1ccccc1-n1nnnc1S(=O)(=O)Cc1ccc(Cl)cc1 ?
Found: TRUE

Lookup: Would you mind telling me which call this test gave Cc1ccc(-n2c(SCC(=O)N/N=C/C=C/c3ccccc3[N+](=O)[O-])nc3ccccc3c2=O)cc1 ?
Found: FALSE

Lookup: Would you mind telling me which call this test gave O=C(NCCOCc1ccc(Cl)cc1)c1ncn[nH]1 ?
Found: FALSE

Lookup: Would you mind telling me which call this test gave O=C(/C=C/c1ccccc1[N+](=O)[O-])NCC1CCCO1 (centres undefined) ?
Found: FALSE

Lookup: Would you mind telling me which call this test gave NS(=O)(=O)c1ccc(CCNC(=S)Nc2ccc(S(N)(=O)=O)cc2)cc1 ?
Found: FALSE

Lookup: Would you mind telling me which call this test gave CCOC(=O)c1c(C)[nH]c2c1-c1ccccc1C(=O)C2=O ?
Found: TRUE

* * *

# measurement description: viability loss in PTEN-deleted colon tumor cells – cell-based, HCT116, CellTiter-Glo, primary screen (AID 827);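 note: PTEN knockout HCT116 line with beta catenin targeted HCT116 as companion control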
# experimental context: HCT116 PTEN-null viability, 60 h, at 10 µM
The campaign covered roughly 140,000 compounds. About 1,700 (1.2%) were called active.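 The calls were made as follows: active = viability at or below a set limit, 4 SD under the median of all tested compounds (cut at about 3.7% in these data); inactive = the rest.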 The sample as a whole holds a higher share of actives than the screen did.
Hi there, use one of these labels in your reply, thanks! y = active, n = inactive

Lookup: Would you mind telling me which call this test gave COC(=O)CN1C(=S)N(c2ccccc2)C(=O)C1CC(=O)Nc1ccc(Cl)cc1 (stereo not drawn) ?
Found: n

Lookup: Would you mind telling me which call this test gave Cc1coc2c(O)cc3c(c12)OC1(N2CCCCC2)C(=O)NCCCC31 (stereo not drawn) ?
Found: y

Lookup: Would you mind telling me which call this test gave O=C(Nc1cc(C(F)(F)F)ccc1Cl)C(=O)N1CCCCC1 ?
Found: n

Lookup: Would you mind telling me which call this test gave COC(=O)c1cc(C(=O)N(Cc2ccccc2)c2ccccn2)cc([N+](=O)[O-])c1 ?
Found: n

Lookup: Would you mind telling me which call this test gave O=C(COC(=O)[C@H](Cc1ccccc1)NC(=O)c1cccs1)Nc1cc(F)ccc1F ?
Found: n

Lookup: Would you mind telling me which call this test gave c1ccc2[nH]c(NCCN3CCOCC3)nc2c1 ?
Found: n

Lookup: Would you mind telling me which call this test gave CCO/N=C(/C)c1c(O)cc(-c2ccccc2)n(-c2ccccc2)c1=O ?
Found: n

Lookup: Would you mind telling me which call this test gave C=CCNC(=S)NNC(=O)c1ccc(Br)o1 ?
Found: n

Lookup: Would you mind telling me which call this test gave O=C(CN1CCN(S(=O)(=O)c2ccc(Br)cc2)CC1)Nc1ccccc1C(=O)c1ccccc1 ?
Found: n

Lookup: Would you mind telling me which call this test gave Cc1ccc(Oc2cc(NC(=O)CCCn3nc(C)c([N+](=O)[O-])c3C)cc([N+](=O)[O-])c2)cc1 ?
Found: n

Lookup: Would you mind telling me which call this test gave c1ccc2cc3c(NCCN4CCOCC4)ccnc3cc2c1 ?
Found: y

Lookup: Would you mind telling me which call this test gave O=C(NNc1ccccc1Cl)C(O)(c1cccc(C(F)(F)F)c1)c1cccc(C(F)(F)F)c1 ?
Found: y

Lookup: Would you mind telling me which call this test gave O=C(O)c1cccc(S(=O)(=O)Nc2ccc(O)cc2Sc2nc3ccccc3s2)c1 ?
Found: n

Lookup: Would you mind telling me which call this test gave Cc1noc(C)c1COC(=O)c1cc2ccccc2cc1O ?
Found: n

Lookup: Would you mind telling me which call this test gave CCc1ccc(NC(=O)c2ccc(Cn3cc([N+](=O)[O-])cn3)cc2)cc1 ?
Found: n

Lookup: Would you mind telling me which call this test gave COc1cccc(NC(=O)c2ccc(Cn3cc([N+](=O)[O-])cn3)o2)c1 ?
Found: n

Lookup: Would you mind telling me which call this test gave Cc1cccc(C)c1NC(=O)C(c1ccccc1)N1CC(=O)Nc2ccccc21 (stereo not drawn) ?
Found: n

Lookup: Would you mind telling me which call this test gave CC(NC(=O)c1cccc2ccccc12)c1ccc2c(c1)CCCC2 (stereo not drawn) ?
Found: n

Lookup: Would you mind telling me which call this test gave O=[N+]([O-])c1c(NCCO)cc(Sc2nc3ccccc3s2)c2nonc12 ?
Found: y

Lookup: Would you mind telling me which call this test gave COc1cc(/C=N\NC(=O)CNC(=O)c2cccc([N+](=O)[O-])c2)ccc1O ?
Found: n

Lookup: Would you mind telling me which call this test gave COc1ccc(CC(=O)Nc2ccc(-c3nnc(-c4ccc(C)cc4)o3)cc2)cc1 ?
Found: y

Lookup: Would you mind telling me which call this test gave c1ccc2c(c1)CSc1sccc1C2=C1CCNCC1 ?
Found: n

Lookup: Would you mind telling me which call this test gave O=C(NNc1c2ccccc2nc2ccccc12)c1cc2ccccc2cc1O ?
Found: y

Lookup: Would you mind telling me which call this test gave O=C(Cn1c(-c2ccccn2)nc2ccccc21)NCCN1CCOCC1 ?
Found: n

Lookup: Would you mind telling me which call this test gave COc1ccc(OCc2cn3c(C)cc(C)nc3n2)cc1 ?
Found: n

Lookup: Would you mind telling me which call this test gave COc1cccc(/C=N\NC(=O)C2=NNC(=O)C2C)c1O (stereo not drawn) ?
Found: n

Lookup: Would you mind telling me which call this test gave O=C(CSc1nc2ccc([N+](=O)[O-])cc2[nH]1)c1ccc(Cl)cc1 ?
Found: n

Lookup: Would you mind telling me which call this test gave COc1ccc(CC(=O)Nc2ccc(C(=O)NC(C)(C)C)cc2)cc1 ?
Found: n

Lookup: Would you mind telling me which call this test gave COc1cccc(NC(=O)Cc2ccc(C)cc2)c1 ?
Found: n

Lookup: Would you mind telling me which call this test gave O=C(CN1C(=O)NC2(CCCCCC2)C1=O)NCc1cccs1 ?
Found: n

Lookup: Would you mind telling me which call this test gave COc1ccc(S(=O)(=O)Nc2ccc(O)c(Sc3nc4ccccc4s3)c2)cc1 ?
Found: n

Lookup: Would you mind telling me which call this test gave COc1cccc(/C=N/Nc2ncc(C(F)(F)F)cc2Cl)c1O ?
Found: y

Lookup: Would you mind telling me which call this test gave O=C(Cc1ccccc1)NNS(=O)(=O)c1ccc([N+](=O)[O-])cc1 ?
Found: n
